Target Or Test System: Dual specificity protein kinase CLK4 (Homo sapiens) (UniProt Q9HAZ1)
Sequence (Q9HAZ1 whole entry, looked up): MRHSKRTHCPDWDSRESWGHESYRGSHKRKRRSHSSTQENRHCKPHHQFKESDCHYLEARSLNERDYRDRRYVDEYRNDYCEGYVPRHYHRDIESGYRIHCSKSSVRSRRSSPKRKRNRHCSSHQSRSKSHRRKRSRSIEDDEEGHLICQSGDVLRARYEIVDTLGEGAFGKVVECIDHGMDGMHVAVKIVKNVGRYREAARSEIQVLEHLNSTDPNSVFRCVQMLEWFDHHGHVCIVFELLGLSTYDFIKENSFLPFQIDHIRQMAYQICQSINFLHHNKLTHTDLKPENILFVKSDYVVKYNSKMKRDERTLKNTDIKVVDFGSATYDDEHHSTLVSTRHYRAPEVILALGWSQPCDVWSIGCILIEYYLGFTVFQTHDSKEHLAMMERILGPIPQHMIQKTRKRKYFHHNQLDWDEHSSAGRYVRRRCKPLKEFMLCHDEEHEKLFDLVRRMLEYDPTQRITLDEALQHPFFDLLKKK
Method Description: Kinase Inhibition Profile Study on Inhibitors of CDC-like Kinase 4
Condition Notes: Reaction Biology radiometric kinase assay, 10 uM ATP
Activity calls are given as the source filed them.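 How the source made its calls: active means compounds whose dose response marks them as Clk4 kinase inhibitors with a measurable half-maximal potency; inactive means the rest.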
Property Measured: Potency

// query Fill blank: measured Potency of the compound c1csc(CNc2ncnc3ccc(-c4ccc5c(c4)OCO5)cc23)c1 is ____.
// result 0.039 µM (active)

// query Consider the compound shown here: Cc1occc1-c1ccc2ncnc(NCCc3cnc[nH]3)c2c1 What is its recorded Potency?
// result 0.74 µM (active)

// query Request the reported Potency associated with Cc1nc(CNc2ncnc3ccc(-c4ccc5c(c4)OCO5)cc23)cs1
// result 0.04 µM (active)

// query Endpoint output: Potency of c1coc(-c2ccc3ncnc(NCc4cccs4)c3c2)c1 . Value?
// result 1.09 µM (active)

// query Any idea what Potency was measured for CCOC(=O)c1ccc(-c2ccc3ncnc(NCc4ncc[nH]4)c3c2)o1 ?
// result 0.79 µM (active)

// query Look at this compound and give its reported Potency. c1nc(NCC2CCCC2)c2cc(-c3ccc4c(c3)OCO4)ccc2n1
// result 0.09 µM (active)

// query What does the data say about its Potency? Entry: Cc1nc(CNc2ncnc3ccc(-c4ccoc4C)cc23)cs1
// result 0.85 µM (active)

// query Param item = CCOC(=O)c1ccc(-c2ccc3ncnc(NCc4ccc(C)o4)c3c2)o1 ; retrieve measured Potency.
// result 0.23 µM (active)

// query Could you share which Potency value was measured for Cc1ccc(CNc2ncnc3ccc(-c4ccoc4C)cc23)o1 ?
// result 0.49 µM (active)

// query Given the entry c1nc(NCC2CCOC2)c2cc(-c3ccc4c(c3)OCO4)ccc2n1 (stereo unspecified) , report its measured Potency.
// result 0.029 µM (active)

// query Recorded Potency for CCOC(=O)c1ccc(-c2ccc3ncnc(NCc4csc(C)n4)c3c2)o1 , please?
// result 0.81 µM (active)

The values you see were collected from PubChem BioAssay AID2710.
